src = patent US12122785B2

Each entry below carries its recorded IC50.
biological target: JAK1 kinase domain (JH1) (Homo sapiens); construct: recombinant purified His or GST-tagged catalytic domain for each enzyme; assay: HTRF-based selectivity assay, JAK1 catalytic domain; conditions: 21.43 μM ATP, read-out: JAK-JHI (IC50)
Sequence (P23458 875-1153 limits assumed): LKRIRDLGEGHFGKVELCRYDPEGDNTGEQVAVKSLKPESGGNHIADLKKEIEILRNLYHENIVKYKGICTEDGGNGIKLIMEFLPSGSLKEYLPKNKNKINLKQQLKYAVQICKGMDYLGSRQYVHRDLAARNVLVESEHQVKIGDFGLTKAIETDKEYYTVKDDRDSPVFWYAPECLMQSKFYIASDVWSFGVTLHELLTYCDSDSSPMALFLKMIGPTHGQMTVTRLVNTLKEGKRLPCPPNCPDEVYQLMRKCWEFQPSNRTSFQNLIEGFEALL

Consider the following illustrative entries.
- [2H]C([2H])([2H])NC(=O)c1cnc(N2CCN(C(C)C)C2=O)cc1Nc1cccc2c1N(C)Cc1cn(C)nc1-2: > 1000 nM
- [2H]C([2H])([2H])NC(=O)c1nnc(NC(=O)C2CC2)cc1Nc1nccc2c1N(C)[C@H](C)c1cn(C)nc1-2 (single isomer, unassigned): > 1000 nM

Here is another compound to look at.
// recorded IC50 for CNC(=O)c1nnc(Nc2ccc(F)cn2)cc1Nc1cccc2c1OCc1cn(C)nc1-2 : > 1000 nM
